observation-type: melting point

Use the examples below as a reference point.
{"sample-smiles": "COCOc1ccc(CCCOc2nn(Cc3ccccc3)cc2CC(=O)O)c(Oc2ncc(C(F)(F)F)cc2Cl)c1", "melting point": "108 to 109 °C"}
{"sample-smiles": "CCn1nc(OCCCc2ccc(OC(C)C)cc2OCc2ccc(C(F)(F)F)cc2)cc1CCC(=O)O", "melting point": "75 to 76 °C"}
{"sample-smiles": "COc1cccc(CC(=O)O)c1OCCCc1cc(OC(C)C)nn1Cc1ccc(Cl)cc1C", "melting point": "108 to 109 °C"}
{"sample-smiles": "COCCOc1ccc(CCCOc2cc(CCC(=O)O)n(C)n2)c(Oc2ncc(C(F)(F)F)cc2Cl)c1", "melting point": "114 to 115 °C"}
{"sample-smiles": "CC(C)Oc1cc(CCCOc2ncccc2CC(=O)O)n(Cc2ccc(F)cc2Cl)n1", "melting point": "90 to 91 °C"}
{"sample-smiles": "Cc1cc(Cl)ccc1Cn1nc(OC(C)C)cc1CCCOc1ncccc1CC(=O)O", "melting point": "97 to 98 °C"}
{"sample-smiles": "CCCOc1cc(CCCOc2nn(Cc3ccccc3)cc2CC(=O)O)n(Cc2ccc(Cl)cc2Cl)n1", "melting point": "132 to 134 °C"}
{"sample-smiles": "COc1cc(CCCOc2c(CC(=O)O)cccc2OC)n(Cc2ccc(Cl)cc2Cl)n1", "melting point": "111 to 112 °C"}

# lookup: melting point of "COCCOc1cc(Oc2ccc(C(F)(F)F)cn2)ccc1CCCOc1cc(CCC(=O)O)n(C)n1" 109.5 to 110.5 °C

// same read-out, input: "CCCOc1cc(CCCOc2nn(Cc3ccccc3)cc2CC(=O)O)n(Cc2ccc(F)cc2F)n1" 94 to 95 °C

// same read-out, input: "CCOc1cc(C(=O)c2ccccn2)ccc1OCCOc1c(CC(=O)O)cccc1OC" 184 to 186 °C

// same read-out, input: "CCc1cccc(CC(=O)O)c1OCCCn1cc(C(=O)NCc2ccc(C(F)(F)F)cc2)c(OC(C)C)n1" 107.5 to 108.5 °C

// same read-out, input: "CCOc1cc(Cc2ccccn2)ccc1CCCOc1c(CC(=O)O)cccc1OC" 97.5 to 98.5 °C

// same read-out, input: "CC(C)Oc1cc(CCCOc2nn(Cc3ccccc3)cc2CC(=O)O)n(Cc2ccc(Cl)cc2Cl)n1" 108 to 110 °C

// same read-out, input: "CC(C)Oc1ccc(CCCCOc2cc(CCC(=O)O)n(C(C)C)n2)c(Oc2ncc(C(F)(F)F)cc2Cl)c1" 99.5 to 100.5 °C

// same read-out, input: "COCCOc1ccc(CCCOc2cc(CCC(=O)O)n(-c3ccccc3)n2)c(Oc2ncc(C(F)(F)F)cc2Cl)c1" 128 to 129 °C

// same read-out, input: "CC(C)Oc1cc(CCCOc2nn(C)cc2CC(=O)O)n(Cc2ccc(Cl)cc2Cl)n1" 96 to 97 °C

// same read-out, input: "CC(C)Oc1ccc(CCCCOc2cc(CCC(=O)O)n(C)n2)c(Oc2ncc(C(F)(F)F)cc2Cl)c1" 156 to 157 °C

// same read-out, input: "CC(C)Oc1ccc(CCCOc2nn(Cc3ccccc3)cc2CC(=O)O)c(OCc2ccc(Cl)cc2Cl)c1" 103 to 104 °C

// same read-out, input: "CCc1cccc(CC(=O)O)c1OCCn1cc(C(=O)NCc2ccc(C(F)(F)F)cc2)c(OC(C)C)n1" 110 to 111 °C
